- Target System: 5-lipoxygenase (5-LO) (Homo sapiens, UniProt P09917)
- Sequence (P09917 whole entry): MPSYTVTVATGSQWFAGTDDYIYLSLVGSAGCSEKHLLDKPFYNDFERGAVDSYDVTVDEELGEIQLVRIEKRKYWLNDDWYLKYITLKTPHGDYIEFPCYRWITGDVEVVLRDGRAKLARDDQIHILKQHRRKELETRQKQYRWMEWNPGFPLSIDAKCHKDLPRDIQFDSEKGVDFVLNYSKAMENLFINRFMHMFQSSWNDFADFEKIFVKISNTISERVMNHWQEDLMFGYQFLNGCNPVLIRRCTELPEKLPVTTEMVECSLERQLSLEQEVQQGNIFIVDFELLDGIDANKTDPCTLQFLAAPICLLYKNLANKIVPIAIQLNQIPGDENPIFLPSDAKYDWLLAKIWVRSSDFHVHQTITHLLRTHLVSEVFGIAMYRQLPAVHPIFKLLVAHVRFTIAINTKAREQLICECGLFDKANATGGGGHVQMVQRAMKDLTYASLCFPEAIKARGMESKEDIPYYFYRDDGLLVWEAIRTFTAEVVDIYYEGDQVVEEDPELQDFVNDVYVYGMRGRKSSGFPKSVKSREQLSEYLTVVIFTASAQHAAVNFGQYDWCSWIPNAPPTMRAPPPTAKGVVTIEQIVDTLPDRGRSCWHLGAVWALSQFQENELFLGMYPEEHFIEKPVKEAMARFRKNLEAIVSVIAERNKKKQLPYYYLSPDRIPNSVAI
- Procedure Summary: cell-free 5-LO activity assay in lysate supernatant of HEK293 cells stably transfected with 5-LO, RP-HPLC of products
Experimental Endpoint: IC50 (nM)
Field: numeric (nM). Do not append units.

Reported IC50 for O=C(/C=C/c1ccc(O)c(O)c1)OCCc1ccccc1 was 130

Reported IC50 for O=C(/C=C/c1ccc(O)c(O)c1)NCCc1ccccc1 was 2380
